From: ChEMBL document CHEMBL4732032

TARGET_SYSTEM: Tyrosine-protein kinase JAK2 (Homo sapiens, UniProt O60674)
Sequence (O60674 whole entry, the tested form may be a part): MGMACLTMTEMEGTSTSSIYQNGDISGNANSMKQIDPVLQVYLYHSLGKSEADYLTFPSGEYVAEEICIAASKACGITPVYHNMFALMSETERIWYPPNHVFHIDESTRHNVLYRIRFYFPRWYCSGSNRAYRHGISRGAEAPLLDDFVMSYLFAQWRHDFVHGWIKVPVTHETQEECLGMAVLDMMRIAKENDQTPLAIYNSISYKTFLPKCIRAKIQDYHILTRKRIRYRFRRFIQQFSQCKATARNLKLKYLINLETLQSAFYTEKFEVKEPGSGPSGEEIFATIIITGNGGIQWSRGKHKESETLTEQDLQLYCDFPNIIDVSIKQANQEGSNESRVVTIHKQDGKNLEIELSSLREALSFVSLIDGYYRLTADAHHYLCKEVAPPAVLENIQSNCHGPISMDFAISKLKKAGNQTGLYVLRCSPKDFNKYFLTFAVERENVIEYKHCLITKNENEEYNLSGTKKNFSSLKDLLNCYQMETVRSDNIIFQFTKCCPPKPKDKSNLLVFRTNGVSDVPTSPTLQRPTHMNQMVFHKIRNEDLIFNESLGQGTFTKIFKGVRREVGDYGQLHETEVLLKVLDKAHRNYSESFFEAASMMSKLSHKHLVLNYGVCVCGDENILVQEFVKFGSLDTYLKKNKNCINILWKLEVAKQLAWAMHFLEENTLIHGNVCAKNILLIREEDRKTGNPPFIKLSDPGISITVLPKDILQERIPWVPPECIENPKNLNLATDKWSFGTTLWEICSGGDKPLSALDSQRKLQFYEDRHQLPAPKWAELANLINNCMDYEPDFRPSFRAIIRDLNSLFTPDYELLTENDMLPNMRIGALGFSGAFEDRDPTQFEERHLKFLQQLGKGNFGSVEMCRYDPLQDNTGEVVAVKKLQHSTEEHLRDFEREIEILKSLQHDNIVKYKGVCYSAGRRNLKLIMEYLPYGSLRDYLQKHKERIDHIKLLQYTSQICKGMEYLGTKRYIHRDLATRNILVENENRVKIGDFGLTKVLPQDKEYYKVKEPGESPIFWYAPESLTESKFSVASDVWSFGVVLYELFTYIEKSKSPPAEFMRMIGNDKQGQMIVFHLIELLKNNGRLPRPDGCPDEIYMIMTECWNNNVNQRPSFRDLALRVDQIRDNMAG
TEST_DETAILS: Inhibition of recombinant human JAK2 JH1 domain expressed in baculovirus infected insect cells using poly-Glu-Tyr (51 to 68 residues) as substrate incubated for 1 hr in presence of ATP by ADP-Glo assay
PROPERTY_NAME: IC50 (nM)
Return type: number; implicit unit nM.

Task: What value of measured IC50 is listed for `CNc1nc(C)c(C(=O)/C=C/c2ccc(O)cc2)s1` ?
Result: 33.9

Task: Consider next the compound `CNc1nc(C)c(C(=O)/C=C/c2ccsc2)s1` in the same way.
Result: 17.6

Task: Then `CNc1nc(C)c(C(=O)/C=C/c2nccs2)s1` ?
Result: 20.3
